Items are presented alongside their recorded solubility kinetic.
settings: buffer; pH 7.4; 200.0 µM

{"record-smiles": "Cc1nc(NC(=O)CSc2nnc(C3CC3)n2N)c(Cl)cc1Cl", "solubility kinetic": "> 56 µg/mL"}
{"record-smiles": "COc1ccccc1NS(=O)(=O)c1ccc(C(=O)N2CCCCCC2)cc1", "solubility kinetic": "> 58.3 µg/mL"}
{"record-smiles": "CN(C)CCOC(=O)CCCCCCCCC(=O)OCCN(C)C.Cl", "solubility kinetic": "> 62.6 µg/mL"}

----------
details: buffer; pH 7.4; 200.0 µM

{"compound": "Cc1cc(C)c(S(=O)(=O)NC2CC2)c(C)c1", "solubility kinetic": "> 35.9 µg/mL"}
{"compound": "Cc1ccc(C)c(S(=O)(=O)NC2CCSC2=O)c1 (stereo not drawn)", "solubility kinetic": "> 42.8 µg/mL"}
{"compound": "O=C(O)c1ccc(N=Cc2nc(-c3ccco3)oc2O)cc1", "solubility kinetic": "> 44.7 µg/mL"}

----------
conditions: buffer; pH 7.4; 200.0 µM
test-readout: log10 of solubility kinetic (log10 of the value in µg/mL)

{"compound": "Cc1ccc(C(CC(=O)N2CCCCC2)c2ccccc2)c(O)c1C (centres undefined)", "observed-result": 0.58}
{"compound": "Cc1ccc(C(=O)NCCNC(=O)COc2ccc(C)c(C)c2)cn1", "observed-result": 1.69}
{"compound": "CNC(=O)c1cc(OCC(F)(F)F)ccc1OCC(F)(F)F", "observed-result": 1.70}
{"compound": "Cc1ccc(Nc2nc(C(=O)NCC3CCCO3)cs2)cc1 (centres undefined)", "observed-result": 0.95}
{"compound": "COc1ccc(NC(=O)Nc2c[nH]c(=O)[nH]c2=O)cc1", "observed-result": 1.00}
{"compound": "COCCCNC(=O)C(C)N1c2cccc3cccc(c23)S1(=O)=O (centres undefined)", "observed-result": 1.70}
{"compound": "Cn1c(N)c(C(=O)COC(=O)c2cc3ccccc3cc2O)c(=O)n(C)c1=O", "observed-result": 0.56}
{"compound": "Cc1ccc(S(=O)(=O)N2CCC[C@H]2C(=O)OCC(=O)N2CCc3ccccc32)cc1", "observed-result": 1.03}
{"compound": "CC(=O)Nc1ccc(SCc2csc(C)n2)cc1", "observed-result": 1.55}
{"compound": "O=C(NCc1ccc2c(c1)OCO2)Nc1ccc(Cl)cc1", "observed-result": -0.10}
{"compound": "CCC1C(=O)C(CC)C(c2ccccc2)NC1c1ccccc1 (centres undefined)", "observed-result": 0.63}
{"compound": "S=C(Nc1ccccc1Oc1ccccc1)NC1CCCC1", "observed-result": 0.70}
{"compound": "O=C(CN1C(=O)C(=O)N(Cc2ccco2)C1=O)Nc1ccc(F)c(F)c1F", "observed-result": 1.72}
{"compound": "O=C(CCl)N1c2ccccc2SCC1c1ccccc1 (centres undefined)", "observed-result": 0.43}
{"compound": "C[C@@H]1C(NC(=O)c2ccccc2)CC2CC1C2(C)C (some centres undefined)", "observed-result": 0.81}
{"compound": "COc1ccccc1C(=O)COC(=O)CN1C(=O)C2CC=CCC2C1=O (centres undefined)", "observed-result": 1.72}
{"compound": "O=S(=O)(c1ccccc1)N1CCN(Cc2c(O)ccc3ccccc23)CC1", "observed-result": 0.82}
{"compound": "Cc1ccc(C2CC(=O)C=C(NCc3ccccc3)C2)cc1 (centres undefined)", "observed-result": 1.10}
{"compound": "CN(CC12CC3CC(CC(C3)C1)C2)C(=O)c1ccco1", "observed-result": 1.58}
{"compound": "N/C(=N\\OC(=O)c1ccccc1F)c1cccc([N+](=O)[O-])c1", "observed-result": 0.32}

----------
details: buffer; pH 7.4; 200.0 µM

{"record-smiles": "O=C(NC(=O)c1c(F)cccc1F)Nc1ccccc1SC(F)F", "solubility kinetic": "< 0.4 µg/mL"}
{"record-smiles": "Cc1cc(O)c(C(=O)/C=C/c2cccc([N+](=O)[O-])c2)c(=O)o1", "solubility kinetic": "> 45.2 µg/mL"}
{"record-smiles": "Cl.O=C(CN1CCOCC1)c1ccc(Br)cc1", "solubility kinetic": "> 48.1 µg/mL"}

----------
settings: buffer; pH 7.4; 200.0 µM
test-readout: solubility kinetic (µg/mL)

{"compound": "CC1CN(C(=O)CS(=O)(=O)Cc2ccc(Cl)cc2)CC(C)O1 (stereo unspecified)", "value-prefix": "=", "observed-result": 46.8}
{"compound": "COC(=O)c1ccccc1CC1SC(N)=NC1=O (stereo unspecified)", "value-prefix": ">", "observed-result": 39.6}
{"compound": "OC1=C(O)c2nc3cc(C(F)(F)F)ccc3nc21", "value-prefix": ">", "observed-result": 38.1}
{"compound": "CC(=O)Nc1cccc(OCC(=O)NCCC2=CCCCC2)c1", "value-prefix": ">", "observed-result": 47.5}
{"compound": "CC(=O)Oc1ccc(C(=O)Nc2cccc3c2CCCC3)cc1", "value-prefix": "=", "observed-result": 3.4}
{"compound": "O=C(O)CC(c1ccc(Cl)cc1)N1Cc2ccccc2C1=O (stereo unspecified)", "value-prefix": ">", "observed-result": 47.4}
{"compound": "O=C(CN1CCc2ccccc2C1)Nc1ccc(F)cc1F", "value-prefix": "=", "observed-result": 28.5}
{"compound": "Cc1nc(NC(=S)NC(=O)c2ccccc2)sc1C", "value-prefix": "=", "observed-result": 0.3}
{"compound": "COc1ccc(N2CCCC2)c(NC(=O)COc2ccccc2)c1", "value-prefix": "=", "observed-result": 3.8}
{"compound": "COc1ccc(N2C(=O)CSC2c2cccc(F)c2)cc1 (stereo unspecified)", "value-prefix": "=", "observed-result": 29.2}
{"compound": "O=C(O)CNC(=O)/C=C/c1c(Cl)cccc1Cl", "value-prefix": ">", "observed-result": 41.1}
{"compound": "O=C1NC2=C(C(=O)CCC2)C(c2ccccc2)N1 (stereo unspecified)", "value-prefix": ">", "observed-result": 36.3}
{"compound": "Cc1ccsc1C(=O)N[C@@H](C)c1nnc2ccccn12", "value-prefix": ">", "observed-result": 43}
{"compound": "O=C(c1ccc(Br)s1)N1CCc2ccccc2C1", "value-prefix": "=", "observed-result": 19.8}
{"compound": "CCOC(=O)c1ccc2nc(C)c(C)nc2c1", "value-prefix": "=", "observed-result": 31.3}
{"compound": "CC(=O)NC(CC(=O)OCc1ccc([N+](=O)[O-])cc1)c1ccccc1 (stereo unspecified)", "value-prefix": ">", "observed-result": 51.4}

----------
conditions: buffer; pH 7.4; 200.0 µM
Items are presented alongside their recorded solubility kinetic.

{"record-smiles": "Cc1nc2ccccc2n1CC(=O)NC1CCCCCC1", "solubility kinetic": "> 42.8 µg/mL"}
{"record-smiles": "Br.COc1cccc(C(=O)CSc2nccn2C)c1", "solubility kinetic": "> 51.5 µg/mL"}
{"record-smiles": "COc1ccc(Cl)cc1NC(=S)NCCN1CCOCC1", "solubility kinetic": "> 49.5 µg/mL"}

----------
Items are presented alongside their recorded solubility kinetic.
conditions: buffer; pH 7.4; 200.0 µM
test-readout: solubility kinetic

{"compound": "N#CCCN(Cc1cccs1)C(=O)c1ccc(Cl)cc1", "observed-result": "> 0.0457 mg/mL"}
{"compound": "O=C(c1cc(Br)c[nH]1)N1CCCCC1", "observed-result": "> 0.0386 mg/mL"}
{"compound": "Cc1cc(C)n2nc(SCC(=O)Nc3ccccc3F)nc2n1", "observed-result": "> 0.0497 mg/mL"}
{"compound": "Cc1sc(NC(=O)CCC(=O)O)c(C#N)c1C", "observed-result": "> 0.0378 mg/mL"}
{"compound": "O/N=C/c1ccc2cccc(O)c2n1", "observed-result": "0.0263 mg/mL"}
{"compound": "OC(CN1CCc2ccccc2C1)c1ccccc1 (stereo not drawn)", "observed-result": "> 0.038 mg/mL"}
{"compound": "CC(=O)N1CCN(C(=O)c2cc(C)oc2C)CC1", "observed-result": "> 0.0375 mg/mL"}
{"compound": "CC(C)OP(=O)(OC(C)C)C(Nc1ccccc1)c1cccnc1 (stereo not drawn)", "observed-result": "0.0465 mg/mL"}
{"compound": "O=C(Nc1ccccc1C(F)(F)F)N1CCN(c2ccccn2)CC1", "observed-result": "0.0499 mg/mL"}
{"compound": "CC(C)CN(C(=O)CSc1nc2ccccc2[nH]1)C1CCS(=O)(=O)C1 (stereo not drawn)", "observed-result": "> 0.0572 mg/mL"}
{"compound": "O=C(COC(=O)c1cc(=O)[nH]c2ccccc12)NCc1ccccc1Cl", "observed-result": "0.0041 mg/mL"}
{"compound": "CCn1cc(C2=NC(CCSC)CO2)c2ccccc21 (stereo not drawn)", "observed-result": "0.034 mg/mL"}
{"compound": "CC1CN(c2ccc([N+](=O)[O-])cn2)CC(C)O1 (stereo not drawn)", "observed-result": "> 0.0356 mg/mL"}
{"compound": "CN1CCN(C(=O)NCC23CC4CC(CC(C4)C2)C3)CC1", "observed-result": "> 0.0437 mg/mL"}
{"compound": "COc1ccc(C(C)=O)cc1COc1cccc2cccnc12", "observed-result": "0.0157 mg/mL"}
{"compound": "OC(CN1CCN(Cc2ccccc2)CC1)c1ccc(Br)cc1 (stereo not drawn)", "observed-result": "0.0081 mg/mL"}
{"compound": "O=C(Cn1ccc([N+](=O)[O-])n1)NCc1cccnc1", "observed-result": "> 0.0392 mg/mL"}
{"compound": "O=C(CSc1nc(-c2ccccc2)cc(=O)[nH]1)Nc1ccccc1F", "observed-result": "< 0.0002 mg/mL"}

The measurements presented in this section are drawn from PubChem BioAssay AID1996.
